Biological target: T1, SNTG1, Q9NSN8
T1 sequence (Q9NSN8 52-150, limits assumed, looked up): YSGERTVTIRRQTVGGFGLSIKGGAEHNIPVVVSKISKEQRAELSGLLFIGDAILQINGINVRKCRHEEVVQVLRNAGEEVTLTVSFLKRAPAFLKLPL
Assay: holdup assay
Set-up: key: below the threshold = too weak to quantify, mostly under pKd 3.1 to 4
Conditions: plain residues with an end cap or a label only (N-terminal biotin on a linker: ado-ado)

- binder: "HLRARKSEWV [GJD4, Q96KN9]"
  pKd: 3.6
- binder: "EVNETDDTKM [KCNJ1, P48048]"
  pKd: 3.54
